- System: A549
- protocol summary: NCI tumour cell line growth inhibition, 48 h
Activity calls are given as the source filed them. Rule as the data show it: active = GI50 up to about 1.1 µM and inactive = higher.
Reported GI50 values for the following molecules.
readout name: GI50

[
  {
    "molecule": "CC1(C)Cc2c(oc3ncnc(N)c23)CS1",
    "measurement": "> 100 µM (inactive)"
  },
  {
    "molecule": "CCOP(=O)(OCC)OC1c2[nH]ccc2-c2cc(C(=O)OC)[nH]c2C1OC (stereo not drawn)",
    "measurement": "> 100 µM (inactive)"
  },
  {
    "molecule": "CCOC(=O)/C=C/c1nc(C#N)c(N)o1",
    "measurement": "> 100 µM (inactive)"
  }
]
